// provenance: PubChem BioAssay (NCI)

# System: SK-MEL-28 melanoma
# protocol_details: NCI tumour cell line growth inhibition, 48 h
measurement_label: TGI

Hello, I am looking for reported TGI with SK-MEL-28 melanoma for O=S1Nc2c(Cl)cc(Cl)c(Cl)c2S1 (centres undefined) . Could you help?
> 100 µM

Hello, I am looking for reported TGI with SK-MEL-28 melanoma for O=C1C(=Cc2ccc(Cl)c(Cl)c2)C([O-])=C([P+](c2ccccc2)(c2ccccc2)c2ccccc2)C([O-])=C1[P+](c1ccccc1)(c1ccccc1)c1ccccc1 . Could you help?
6.07 µM

More entries:
Hello, I am looking for reported TGI with SK-MEL-28 melanoma for CCN(c1cc(C#CCN2CCOCC2)cc(C(=O)NCc2c(C)cc(C)[nH]c2=O)c1C)C1CCC(N(C)CCOC)CC1 (centres undefined) . Could you help?
> 100 µM

Hello, I am looking for reported TGI with SK-MEL-28 melanoma for N.N.O=P([O-])([O-])C1(P(=O)([O-])[O-])CCCCCN1.[Pt+2] . Could you help?
> 100 µM
